Tested on: SNU16 cancer cell lines
Assay: Cell proliferation assay
Type: cell-based
Details: Homo sapiens, SNU-16, read-out: SNU16 IC50
Measure: IC50

## Task Entry CCCCNc1cc(F)c(-n2nc3c(=O)[nH]nc(N)c3c2-c2oc3ccc(C)cc3c2C)c(F)c1 [Compound 9z] : reported IC50 = ?
## Result > 1000 nM

## Task Entry Cc1c(-c2c3c(N)n[nH]c(=O)c3nn2-c2ccccc2)oc2ccc(Br)cc12 [Compound 8m] : reported IC50 = ?
## Result > 1000 nM

***
## Task Entry C=CC(=O)Nc1cccc(-n2nc3c(=O)[nH]nc(N)c3c2-c2oc3ccc(C)cc3c2C)c1 [Compound 10l] : reported IC50 = ?
## Result 660 nM
